Where do the numbers come from? From patent US10494415B2.

Please provide measured Kinetics kon for the entries that follow.
Target: IGF2 (Homo sapiens, UniProt P01344)
Sequence (P01344 25-91): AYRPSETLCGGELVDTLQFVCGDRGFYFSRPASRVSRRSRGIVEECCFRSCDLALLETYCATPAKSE
Assay: SPR (Biacore T200) of recombinant IGF2R domain 11 mutants on immobilised biotinylated IGF2
Assay type: binding
Set-up: purchased GroPep
Details: Table 3; 25° C., HBS-EP pH 7.4
Answers are plain numbers, in M⁻¹ s⁻¹.

Completed entries (count: 2):
[
  {
    "molecule": "AB5 Q1569R: domain 11 AB5 + CD loop Q1569R (protein) MKSNEHDDCQVTNPSTGHLFDLSSLSGRAGFTAAYAKGWGVYMSICGENENCPPGVGACFGRTRISVGKANKRLRYVDQVLQLVYKDGSPCPSKSGLSYKSVISFVCRPEAGPTNRPMLISLDKQTCTLFFSWHTPLACEQATECSV",
    "Kinetics kon / M⁻¹ s⁻¹": "8.04e+06"
  },
  {
    "molecule": "AB5: IGF2R domain 11 with five AB loop mutations S1543A, E1544K, K1545G, G1546W, L1547G (YAKGWG) (protein) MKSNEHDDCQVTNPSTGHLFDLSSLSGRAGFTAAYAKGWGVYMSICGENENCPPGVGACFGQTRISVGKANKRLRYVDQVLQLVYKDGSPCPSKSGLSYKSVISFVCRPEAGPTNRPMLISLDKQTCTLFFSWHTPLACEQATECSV",
    "Kinetics kon / M⁻¹ s⁻¹": "4.21e+06"
  }
]

# input for lookup
input: Query (molecule): AB5 P1597S: domain 11 AB5 + P1597S (protein) MKSNEHDDCQVTNPSTGHLFDLSSLSGRAGFTAAYAKGWGVYMSICGENENCPPGVGACFGQTRISVGKANKRLRYVDQVLQLVYKDGSSCPSKSGLSYKSVISFVCRPEAGPTNRPMLISLDKQTCTLFFSWHTPLACEQATECSV ; field requested: Kinetics kon
output: 5e+06
